system: ddy strain of male mice; assay: Acute toxicity (oral, mice, 7 days observation); type: in vivo; details: 500 mg/kg oral
measured.metric: Acute toxicity: death number of mice/number of mice tested

>>> result("CCCCN(C(=O)N(C)C(=O)NC)c1ccccc1")
"1/4"
>>> result("CN(C(=O)Nc1ccccc1)C(=O)N1CC1")
"4/4"
>>> result("CN(C)C(=O)N(C)C(=O)Nc1ccc([N+](=O)[O-])cc1")
"2/4"
>>> result("COc1cc(NC(=O)N(C)C(=O)N(C)C)cc(OC)c1OC")
"0/4"
>>> result("CN(C)C(=O)N(C)C(=O)Nc1c(F)c(F)cc(F)c1F")
"0/4"
>>> result("CC(=O)c1ccc(NC(=O)N(C)C(=O)N(C)C)cc1")
"0/4"

* * *

assay: Acute toxicity (oral, mice, 7 days observation); type: in vivo; conditions: mouse, in vivo; oral, male ddy mice, 7 days observation; Δ mark; read-out: 50% lethal dose, LD50
measured.metric: LD50 at 168 h (mg/kg)

>>> numeric_value("CCN(C(=O)N(C)C(=O)NC)c1ccccc1Cl [compound 59]")
810
>>> numeric_value("CN(C(=O)Nc1ccccc1)C(=O)N1CCCCC1 [compound 70]")
515
>>> numeric_value("CCNC(=O)NC(=O)N(C)c1ccccc1 [compound 50, 1-Methyl-1-phenyl-5-ethylbiuret]")
1960
>>> numeric_value("CCN(C(=O)N(C)C(=O)NC)c1ccccc1 [Compound No. 58, 1-ethyl-3,5-dimethyl-1-phenylbiuret]")
1000
